Source listed as ChEMBL document CHEMBL1133719.

- Tested on: SR
- runDescription: Cytotoxicity against NCI tumor panel, SR leukemia cell line
- Assay type: functional, cell-based
- statedConditions: Homo sapiens
measurementName: IC50 (pM)
Express it in pM; write the number only.

Recorded IC50 for CC(=O)Nc1ccc2[nH]c(C(=O)Nc3ccc4[nH]c(C(=O)N5CC(CCl)c6c5cc(O)c5ccccc65)cc4c3)cc2c1 (stereo unspecified) , please? 562
